The origin of these recorded values is ChEMBL document CHEMBL1201862.

Tested on: UACC-62
assay_info: NCI tumour cell line growth inhibition, 48 h
Calls of active or inactive are those of the source. No stated cut-off is given here; in the data, active = GI50 up to about 1.1 µM and inactive = higher.
Outcomes: 1.0 for active, 0.0 for inactive

>>> class_assignment("C=CCNC(=S)N/C=C(/C(C)=O)C(=O)Nc1ccccc1C")
0.0
>>> class_assignment("COC(=O)CNC(=O)Nc1cc(N2C(=O)ON3C2C(C)(C)N(O)C3(C)C)ccc1C (stereo unspecified)")
0.0
>>> class_assignment("CC1=C(N2CC2)C(=O)c2ccccc2C1=O")
1.0
>>> class_assignment("C#Cc1c(C)c(/C=C/C(C)=C/C=C/C(C)=C/C(=O)OC)n(C)c1C")
0.0
>>> class_assignment("C/C=C1\\CC(C(=O)OCC)CCCCCCC1=O (stereo unspecified)")
0.0
>>> class_assignment("COc1ccc(-c2cc(C(=O)Nc3cccc(C(F)(F)F)c3)nc(S)n2)cc1")
0.0

* * *

Tested on: K562
assay_info: NCI tumour cell line growth inhibition, 48 h
The source made the active and inactive calls. No stated cut-off is given here; in the data, active = GI50 up to about 1.1 µM and inactive = higher.
List of GI50 values.
observable: GI50

>>> value("N#C/C(=N\\c1ccccc1N(C(=O)c1ccccc1)C(=O)c1ccccc1)c1ccccc1")
"3.49 µM (inactive)"
>>> value("COc1cc(/C=C2\\C(=O)N(c3cc(Cl)ccc3Cl)C(c3ccccc3)S2(=O)=O)cc(OC)c1OC (stereo not given)")
"31 µM (inactive)"
>>> value("O=C(NNc1ccc([N+](=O)[O-])cc1[N+](=O)[O-])/C(O)=C\\C(=O)c1ccccc1")
"25.1 µM (inactive)"
>>> value("N#Cc1nc(CCCN2C(=O)c3ccccc3C2=O)oc1N")
"> 100 µM (inactive)"
>>> value("CCOC(=O)c1c(Nc2ccccc2)sc2cccnc12")
"8.36 µM (inactive)"
>>> value("CSc1ncnc2c1cnn2Cc1cnnn1COCC(O)CO (stereo not given)")
"> 100 µM (inactive)"
>>> value("CC1C(=O)CC(c2cccs2)N(N=O)C1c1cccs1 (stereo not given)")
"15.8 µM (inactive)"
>>> value("OCC(O)C(O)C(O)C(/C=N\\Nc1ncnc2ccc(Br)cc12)=N/Nc1ncnc2ccc(Br)cc12 (stereo not given)")
"7.48 µM (inactive)"
>>> value("COC(=O)/C(C#N)=C1\\NN=NN1CCCc1ccccc1")
"> 100 µM (inactive)"
>>> value("COc1ccc(-c2c(N)n(-c3cccc(C(=O)O)c3)c(=O)c3cc([N+](=O)[O-])ccc23)cc1")
"> 100 µM (inactive)"

* * *

System: LOX IMVI
assay_info: NCI tumour cell line growth inhibition, 48 h
The source made the active and inactive calls. Rule as the data show it: active = GI50 up to about 1.1 µM and inactive = higher.
Outcomes: active, inactive

>>> class_assignment("CCOC(=O)C1=C(Nc2ccc(Cl)cc2Cl)OC/C1=N\\NS(=O)(=O)c1ccc(C)cc1")
"inactive"
>>> class_assignment("COC(=O)Nc1nc2cc(S(=O)(=O)n3nnc4ccccc43)ccc2[nH]1")
"inactive"
>>> class_assignment("Cc1ccc(F)cc1NC(=O)O/N=C(\\Cl)C(C)C")
"inactive"
>>> class_assignment("Cc1ccc(C(=O)Nc2ccc(S(=O)(=O)O)c3cc(S(=O)(=O)O)cc(S(=O)(=O)O)c23)cc1NC(=S)Nc1cc(C(=O)Nc2ccc(S(=O)(=O)O)c3cc(S(=O)(=O)O)cc(S(=O)(=O)O)c23)ccc1C")
"inactive"
>>> class_assignment("O=C1Nc2ccccc2/C1=N/NC(=S)Nc1ccc(Cl)cc1")
"inactive"
>>> class_assignment("CN1CCN(c2nc3cc(F)ccc3n3cccc23)CC1")
"inactive"
>>> class_assignment("Cc1cn(CCCCCCC2=NCCCN2)c(=O)[nH]c1=O")
"inactive"
>>> class_assignment("Cc1ccccc1Nc1nc2c(s1)C(=O)c1ccccc1C2=O")
"inactive"
>>> class_assignment("COC(=O)c1cc2/c(=N/O)c3ccccc3sc2o1")
"inactive"
>>> class_assignment("COC(=O)/C(=N/O)C(C(=O)OC)C(=O)C(=O)Nc1c(Cl)cc(C)cc1S(=O)(=O)O (stereo unspecified)")
"inactive"
>>> class_assignment("COc1cc(/C=C2\\C(=O)N(c3cc(Cl)ccc3Cl)C(c3ccccc3)S2(=O)=O)cc(OC)c1OC (stereo unspecified)")
"inactive"
>>> class_assignment("COc1ccc(C(=O)/C=C/c2ccncc2)cc1OC")
"inactive"
>>> class_assignment("Cc1cc(Cl)cc2c1NC(=O)C2(O)C(C)C(=O)c1ccc(Cl)cc1 (stereo unspecified)")
"inactive"
>>> class_assignment("CN(CC(=O)Nc1ccccc1C(=O)O)c1ccccc1")
"inactive"
>>> class_assignment("COc1cc2c3c(c1OC)-c1ccccc1C(C(O)c1ccccc1)C3N(C)CC2 (stereo unspecified)")
"inactive"
>>> class_assignment("CC(C)(C)/N=C1\\C(=O)C2(C)CCC1C2(C)C (stereo unspecified)")
"inactive"
>>> class_assignment("CN(C)/C=N/c1ccc2c3c(cccc13)-c1ccccc1-2")
"inactive"
>>> class_assignment("N=C(N)SCC(=O)O")
"inactive"
>>> class_assignment("Cc1ccc(S(=O)(=O)c2c(N)c3nccn3c3nc4ccccc4nc23)cc1")
"inactive"
>>> class_assignment("CC[C@@]1(O)C[C@H](OC2CC(N(C)C)C(OC3CC(O)C(OC4CCC(=O)C(C)O4)C(C)O3)C(C)O2)c2c(cc3c(c2O)C(=O)c2c(O)ccc(O)c2C3=O)[C@H]1C(=O)OC (stereo partly specified)")
"active"
>>> class_assignment("O=C(Nc1ccccc1C(=O)O)C(=Cc1ccccc1O)NC(=O)c1ccccc1")
"inactive"
